Hi there, I'd appreciate the recorded protein stability index for every entry that follows.
- protocol: protein stability index of a GFP-peptide fusion (yeast GPS) (PSI 1-4); higher = more stable; sorted into four equal gates, so the index is relative within each strain
- measurement-parameters: doa10∆
Answers are plain numbers.

Some sequences with known protein stability index results, for comparison:
YKATATGPKQQEITTNL [SCL1]: 3.17
QIGQVPLAPAPINLPPQ [SNF5]: 2.35
LKNVEETQEIKENDTVM [ESC2]: 2.86
SAASIPPQQTYHFPIFN [RPN4]: 2.55
QPTNFTTKRLWSEITES [MCD1]: 1.99
PDIVGHEFTLSFTYELK [BRR2]: 2
NLWKNIFLSKENSAVAA [COR1]: 1.85
GPNNFIWPAEDALRRGM [MED4]: 3.35
NMLICAPTGSGKTNIAL [BRR2]: 2.55
SGKSNILDAICFVLGIA [SMC2]: 1.85

List reported protein stability index for each of these sequences:
1. HNKLNITSDALEGITTT [SMC3]
2. TDSSALTYDRLEFATIR [PRE9]
3. KKKAFTKYSAKYAQDGA [RPL3]

output:
3.19
3.07
3.03

List reported protein stability index for each of these sequences:
1. PSYYGVRDTSPHGISVF [BRR2]
2. MLVKAVANSTKAAFIRV [RPT3]

output:
1.35
1.97

----------
- protocol: protein stability index of a GFP-peptide fusion (yeast GPS) (PSI 1-4); higher = more stable; sorted into four equal gates, so the index is relative within each strain
- measurement-parameters: doa10∆
Tick y if protein stability index is 3 or greater. Tick n if protein stability index is less than 3.

input: Can NIDINNEDENIQLIKIL [YJL041W/NSP1] be said to have protein stability index at or above 3?
output: n

input: Can NEKIEKRSDLTGANSIY [UBP6] be said to have protein stability index at or above 3?
output: n

input: Can MFAYAKEHEPCIIFMDE [RPT4] be said to have protein stability index at or above 3?
output: n

input: Can ESISQTPISNEQTEGEP [SRP68] be said to have protein stability index at or above 3?
output: y

input: Can LKDLMDLCDVVESKFTE [RPC19] be said to have protein stability index at or above 3?
output: y

----------
- protocol: protein stability index of a GFP-peptide fusion (yeast GPS) (PSI 1-4); higher = more stable; sorted into four equal gates, so the index is relative within each strain
- measurement-parameters: san1∆
Hi there, I'd appreciate the recorded protein stability index for every entry that follows.
One number for each entry.

AGFDPRDDEPKLYQTEP [PRE6]: 3.1
LAKAVAATIGANFIFSP [RPT4]: 1.72
MFRNNYDGDTVTFSPTG [PRE5]: 2.52

List reported protein stability index for each of these sequences:
1. GCDENDSTVNKSITLKG [YDL088C/ASM4]
2. NKFMSIFLKRKDFTNKN [SRB8]

output:
1: 3.32; 2: 3.03

List reported protein stability index for each of these sequences:
1. IPSLQNNIEENLRLLNS [ECM29]
2. LGNEKNQASTSKRVYKI [CDC53]

output:
1: 3.34; 2: 2.92

List reported protein stability index for each of these sequences:
1. DKQGWTPLFHALAEGHG [NAS6]
2. FQKAQGSYAGHRKHIAV [YCG1]
3. AINVFPEGYKAKSISTS [RPO31]
4. ESAAVYNGRGARERKTA [SNF2]
5. VLDVDPKYAKQKDKSDT [ISW2]
6. THIPQTNLKNHPAYLFK [YLR018C/POM34]
7. FVPVPALSAYHKVQTKL [RPS7B]

output:
2.99
2.29
2.27
2.76
3.05
2.64
2.27

List reported protein stability index for each of these sequences:
1. NQMKVAPIPKQLLQRIP [GAL11]
2. FYQGKTGVVYNVTKSSV [RPL21A]
3. VTSMEAAREKKIRELEA [YIL149C/MLP2]
4. KVIEEQLKHTKLALAEN [SMC4]

output:
1: 2.52; 2: 2.42; 3: 2.92; 4: 1.32
